Substrate: Nc1ncnc2c1ncn2[C@@H]1O[C@H](COP(=O)(O)OP(=O)(O)OP(=O)(O)O)[C@@H](O)[C@H]1O
test_details: phosphate release, BIOMOL Green
Format: biochemical, Homo sapiens
test_parameters: 50 mM HEPES-KOH pH 7.5, 100 mM NaCl, 5 mM MgCl2, 37 °C
measurement_name: Km
Write the numeric value and follow it with the unit.

[ask] I would be grateful if you could share the reported Km for ProS2-fused human PMS2 NTD (Homo sapiens; K91R) (protein) MERAESSSTEPAKAIKPIDRKSVHQICSGQVVLSLSTAVKELVENSLDAGATNIDLKLKDYGVDLIEVSDNGCGVEEENFEGLTLKHHTSRIQEFADLTQVETFGFRGEALSSLCALSDVTISTCHASAKVGTRLMFDHNGKIIQKTPYPRPRGTTVSVQQLFSTLPVRHKEFQRNIKKEYAKMVQVLHAYCIISAGIRVSCTNQLGQGKRQPVVCTGGSPSIKENIGSVFGQKQLQSLIPFVQLPPSDSVCEEYGLSCSDALHNLFYISGFISQCTHGVGRSSTDRQFFFINRRPCDPAKVCRLVNEVYHMYNRHQYPFVVLNISVDSECVDINVTPDKRQILLQEEKLLLAVLKTSLIGMFDS .
[reply] 300 ± 42 µM
